Molecular target: LPAR1 (Homo sapiens, UniProt Q92633)
Construct: host or cells: U2OS
Sequence (Q92633 whole entry): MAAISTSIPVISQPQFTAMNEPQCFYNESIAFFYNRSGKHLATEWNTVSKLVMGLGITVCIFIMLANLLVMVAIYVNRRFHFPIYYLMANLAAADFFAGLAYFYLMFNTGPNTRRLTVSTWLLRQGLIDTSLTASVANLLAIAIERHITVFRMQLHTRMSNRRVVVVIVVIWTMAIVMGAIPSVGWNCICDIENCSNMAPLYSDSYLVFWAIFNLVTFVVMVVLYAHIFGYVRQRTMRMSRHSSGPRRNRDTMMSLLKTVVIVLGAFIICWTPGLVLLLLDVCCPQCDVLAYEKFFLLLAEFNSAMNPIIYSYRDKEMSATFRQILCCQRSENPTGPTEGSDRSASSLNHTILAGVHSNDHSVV
Assay: LPAR1 FLIPR Assay
Type: cell-based
Settings: U2OS cells stably expressing LPAR1; LPA (EC80); Calcium 6 FLIPR dye; read-out: Maximum Inhibition
Description: U2OS cells stably expressing LPAR1 (Life Technologies #K1519A) were plated at 12000 cells/well in growth medium (McCoy's 5A medium(Life Technologies 16600-082)) with 10% dFBS (Life Technologies 26400-036), 0.1 mM non-essential amino acids, 25 mM HEPES, 1 mM sodium pyruvate, 1% penicillin/streptomycin, 50 μg/mL hygromycin, and 100 μg/mL Geneticin® in black-walled, clear-bottom 384-well plates (Corning #3683) and incubated in humidified 5% CO2 at 37° C. overnight. […]
In this section, each of the compounds is paired with its reported Emax.
Result type: Emax

{"Compound": "COc1cc(C(=O)N(CCCCC(=O)O)CCC(C)c2ccccc2)cc(OC)c1C (stereo not drawn)", "Target": "LPAR1 (Homo sapiens, UniProt Q92633)", "Result": "91%"}
{"Compound": "COc1ccc(C2(C(=O)N(CCCCC(=O)O)CCCc3ccccc3)CC(=O)C2)cc1", "Target": "LPAR1 (Homo sapiens, UniProt Q92633)", "Result": "88%"}
{"Compound": "COc1cc(C(=O)N(CCCCC(=O)O)CCCc2ccccc2)cc(OC)c1OC", "Target": "LPAR1 (Homo sapiens, UniProt Q92633)", "Result": "92%"}
{"Compound": "COc1cc(C(=O)N(CCCc2ccccc2)CCSCCC(=O)O)cc(OC)c1C", "Target": "LPAR1 (Homo sapiens, UniProt Q92633)", "Result": "95%"}
{"Compound": "COc1ccc(C2(C(=O)N(CCCCC(=O)O)CCCc3ccccc3)CCCC2)cc1", "Target": "LPAR1 (Homo sapiens, UniProt Q92633)", "Result": "55%"}
{"Compound": "COc1ccc(C2(C(=O)N(CCCc3ccccc3)CCSCC(=O)O)CC2)cc1", "Target": "LPAR1 (Homo sapiens, UniProt Q92633)", "Result": "78%"}
{"Compound": "CNS(=O)(=O)NC(=O)CCCCN(CCCc1ccccc1)C(=O)C1(c2ccc(OC)cc2)CC1", "Target": "LPAR1 (Homo sapiens, UniProt Q92633)", "Result": "65%"}
{"Compound": "COc1cc(C(=O)N(CCCCC(=O)O)CCCc2ccccc2)cc2ccoc12", "Target": "LPAR1 (Homo sapiens, UniProt Q92633)", "Result": "58%"}
{"Compound": "COc1ccc(C2(C(=O)N(CCCCC(=O)O)CCCc3ccccc3)CCC2)cc1", "Target": "LPAR1 (Homo sapiens, UniProt Q92633)", "Result": "88%"}
{"Compound": "COc1cc(OC)cc(C(=O)N(CCCc2ccccc2)CCCC(C)C(=O)O)c1 (stereo not drawn)", "Target": "LPAR1 (Homo sapiens, UniProt Q92633)", "Result": "87%"}
{"Compound": "COc1cc(C(=O)N(CCCCC(=O)O)CCCc2ccccc2)cc(OC)c1Br", "Target": "LPAR1 (Homo sapiens, UniProt Q92633)", "Result": "99%"}
{"Compound": "COc1cc(C(=O)N(CCCCC(=O)O)CCCc2ccccc2)cc2oc(C)cc12", "Target": "LPAR1 (Homo sapiens, UniProt Q92633)", "Result": "87%"}

---

Target: LPAR1 (Homo sapiens)
Construct: host or cells: U2OS
Assay: LPAR1 FLIPR Assay
Format: cell-based
Details: U2OS cells stably expressing LPAR1; LPA (EC80); Calcium 6 FLIPR dye; read-out: Maximum Inhibition
Result type: Emax (%)

{"Molecule": "COc1cc(C(=O)N(CCCCC(=O)O)CCCc2ccccc2)cc(OC)c1C(F)(F)F [Example 37]", "Target": "LPAR1 (Homo sapiens)", "Result type": "Emax", "Result number": 96}
{"Molecule": "COc1cc(C(=O)N(CCCCC(=O)O)CCCc2ccccc2)nc(OC)n1 [Example 163]", "Target": "LPAR1 (Homo sapiens)", "Result type": "Emax", "Result number": 57}
{"Molecule": "COc1cc(C(=O)N(CCCc2ccccc2Cl)CCOCC(=O)O)cc(OC)c1C [Example 131]", "Target": "LPAR1 (Homo sapiens)", "Result type": "Emax", "Result number": 86}
{"Molecule": "COc1cc(C(=O)N(CCCCP(=O)(O)O)CCCc2ccccc2)cc(OC)c1C [Example 71]", "Target": "LPAR1 (Homo sapiens)", "Result type": "Emax", "Result number": 91}
{"Molecule": "COc1cc(OC)cc(C(=O)N(CCCCP(=O)(O)O)CCCc2ccccc2)c1 [Example 75]", "Target": "LPAR1 (Homo sapiens)", "Result type": "Emax", "Result number": 72}
{"Molecule": "COc1ccc(C2(C(=O)N(CCCCC(=O)O)CCCc3ccccc3)CC2)cc1 [Example 8]", "Target": "LPAR1 (Homo sapiens)", "Result type": "Emax", "Result number": 86}
{"Molecule": "CNS(=O)(=O)NC(=O)CCCCN(CCCc1ccccc1)C(=O)c1cc(OC)c(C)c(OC)c1 [Example 70]", "Target": "LPAR1 (Homo sapiens)", "Result type": "Emax", "Result number": 98}
{"Molecule": "COc1cc(C(=O)N(CCCc2ccccc2)CC(=O)N[C@@H](Cc2ccccc2)C(=O)O)cc(OC)c1C [Example 46]", "Target": "LPAR1 (Homo sapiens)", "Result type": "Emax", "Result number": 66}
{"Molecule": "CNS(=O)(=O)NC(=O)CCN(CCCc1ccccc1)C(=O)c1cc(OC)c(C)c(OC)c1 [Example 68]", "Target": "LPAR1 (Homo sapiens)", "Result type": "Emax", "Result number": 52}
{"Molecule": "COc1cc(C(=O)N(CCCc2cc(Cl)cc(Cl)c2)CCOCC(=O)O)cc(OC)c1C [Example 127]", "Target": "LPAR1 (Homo sapiens)", "Result type": "Emax", "Result number": 7}
{"Molecule": "COc1cc(C(=O)N(CCCCC(=O)O)CCCc2cccc(C)c2)cc(OC)c1C [Example 11]", "Target": "LPAR1 (Homo sapiens)", "Result type": "Emax", "Result number": 96}
{"Molecule": "Cn1cc(C(=O)N(CCCCC(=O)O)CCCc2ccccc2)c2ccccc2c1=O [Example 169]", "Target": "LPAR1 (Homo sapiens)", "Result type": "Emax", "Result number": 71}
{"Molecule": "COc1cc(C(=O)N(CCCCC(=O)O)CCCc2ccccc2)cc(OC)c1F [Example 99]", "Target": "LPAR1 (Homo sapiens)", "Result type": "Emax", "Result number": 82}
{"Molecule": "COc1cc(C(=O)N(CCCc2c(F)cccc2F)CCSCC(=O)O)cc(OC)c1C [Example 113]", "Target": "LPAR1 (Homo sapiens)", "Result type": "Emax", "Result number": 87}
{"Molecule": "COc1cc(C(=O)N(CCCc2ccccc2)CCC[C@@H](C)C(=O)O)cc(OC)c1C (single isomer, unassigned) [Example 77]", "Target": "LPAR1 (Homo sapiens)", "Result type": "Emax", "Result number": 100}
{"Molecule": "COc1cc(C(=O)N(CCCCC(=O)O)CCCc2ccccc2)cc(OC)n1 [Example 48]", "Target": "LPAR1 (Homo sapiens)", "Result type": "Emax", "Result number": 81}
{"Molecule": "COc1cc(C(=O)N(CCCc2ccc(C)o2)CCSCC(=O)O)cc(OC)c1C [Example 132]", "Target": "LPAR1 (Homo sapiens)", "Result type": "Emax", "Result number": 86}
{"Molecule": "COc1cc(C(=O)N(CCCCC(=O)O)CCCc2ccc(C)s2)cc(OC)c1C [Example 41]", "Target": "LPAR1 (Homo sapiens)", "Result type": "Emax", "Result number": 97}
{"Molecule": "COc1cc(OC)cc(C(=O)N(CCCCC(=O)O)CCCc2ccccc2Cl)c1 [Example 135]", "Target": "LPAR1 (Homo sapiens)", "Result type": "Emax", "Result number": 32}
{"Molecule": "CCOc1cc(OCC)cc(C(=O)N(CCCCC(=O)O)CCCc2ccc(C)o2)c1 [Example 176]", "Target": "LPAR1 (Homo sapiens)", "Result type": "Emax", "Result number": 64}
{"Molecule": "Cc1cc(C(=O)N(CCCCC(=O)O)CCCc2ccccc2)c2c(C)noc2n1 [Example 172]", "Target": "LPAR1 (Homo sapiens)", "Result type": "Emax", "Result number": 63}
{"Molecule": "O=C(O)CCCCN(CCCc1ccccc1)C(=O)c1cc(Cl)cc(Cl)c1 [Example 12]", "Target": "LPAR1 (Homo sapiens)", "Result type": "Emax", "Result number": 55}
{"Molecule": "COc1cc(C(=O)N(CCCCC(=O)O)CCCc2cccc(F)c2)cc(OC)c1C [Example 33]", "Target": "LPAR1 (Homo sapiens)", "Result type": "Emax", "Result number": 99}
{"Molecule": "COc1cc(C(=O)N(CCCc2ccccc2F)CCSCC(=O)O)cc(OC)c1C [Example 116]", "Target": "LPAR1 (Homo sapiens)", "Result type": "Emax", "Result number": 88}
{"Molecule": "O=C(O)CCCCN(CCCc1ccccc1)C(=O)c1ccc2c(c1)OCCCO2 [Example 23]", "Target": "LPAR1 (Homo sapiens)", "Result type": "Emax", "Result number": 53}
{"Molecule": "O=C(O)CCCCN(CCCc1ccccc1)C(=O)C1(c2ccc3c(c2)OCO3)CC1 [Example 27]", "Target": "LPAR1 (Homo sapiens)", "Result type": "Emax", "Result number": 65}
{"Molecule": "COc1cc(C(=O)N(CCCCC(=O)O)CCCc2ccc(Cl)cc2Cl)cc(OC)c1C [Example 49]", "Target": "LPAR1 (Homo sapiens)", "Result type": "Emax", "Result number": 58}
{"Molecule": "COc1cc(C(=O)N(CCCc2ccccc2)C[C@H]2CCC(=O)O2)cc(OC)c1C [Example 181]", "Target": "LPAR1 (Homo sapiens)", "Result type": "Emax", "Result number": 80}
